Test: Plasma concentrations and pharmacokinetic parameters of Compounds 1 and 2 in rats after oral Compound 1
Type: in vivo, rat
Details: po; rat plasma, single p.o. dose of Compound 1, 0.2 mg/kg
property: Cmax

# smiles, observed measurement
measured = [
    ("C[C@]12C[C@H](c3ccc(S(C)(=O)=O)cc3)C3=C4CC[C@@H](O)C=C4CC[C@H]3[C@@H]1CC[C@@]2(O)C(F)(F)C(F)(F)F", "< 1 ng/mL"),
]
